Listing: IC90 of selected molecules
- Tested on: Acinetobacter baumannii ATCC17961
- TEST DESCRIPTION: Antimicrobial susceptibility testing: 90% growth inhibitory concentration (IC90) determination
- Type: cell-based
- PARTICULARS: Acinetobacter baumannii ATCC17961; Iso-Sensitest broth; growth by OD 600 nm over 16 h; 35±2° C.; read-out: ATCC 17961 IC90
Structures can show the parent of a compound that is named as a salt.
Just the number in nM, nothing appended.

Cn1c(-c2ccc(OCC#N)c(F)c2F)cnc1C(=O)Nc1ccc(C(=O)N[C@H]2C[C@@H](NC(=O)C[N+](C)(C)C)C2)c(Cl)c1
88
COc1ccc(-c2cnc(C(=O)Nc3ccc(C(=O)N4CCN(C(=O)C[N+](C)(C)CC(N)=O)CC4)c(C)c3)n2C)c(F)c1F
280
COc1ccc(-c2cnc(C(=O)Nc3ccc(C(=O)N4CCN(C(=O)C[N+](C)(C)C)CC4)c(C)c3)n2C)c(F)c1F
280
COc1ccc(-c2cnc(C(=O)Nc3ccc(C(=O)NCc4cn(CCOCCO)[n+](C)c4)c(Cl)c3)n2C)c(F)c1F
410
Cn1c(-c2ccc(OC(F)F)c(F)c2F)cnc1C(=O)Nc1ccc(C(=O)N2CCN(C(=O)C3CC[N+](C)(CC(=O)O)CC3)CC2)c(Cl)c1 (stereo not drawn)
410

Enquiry: What does the data say about its IC90? Entry: Cn1c(-c2ccc(OCC#N)c(F)c2F)cnc1C(=O)Nc1ccc(C(=O)NCCOCC[N+](C)(C)C)c(Cl)c1 [Example A15, formate]
Return: 770
